# SYSTEM_TESTED: Aurora A (Homo sapiens (Human), UniProt O14965)
# Sequence (O14965 whole entry): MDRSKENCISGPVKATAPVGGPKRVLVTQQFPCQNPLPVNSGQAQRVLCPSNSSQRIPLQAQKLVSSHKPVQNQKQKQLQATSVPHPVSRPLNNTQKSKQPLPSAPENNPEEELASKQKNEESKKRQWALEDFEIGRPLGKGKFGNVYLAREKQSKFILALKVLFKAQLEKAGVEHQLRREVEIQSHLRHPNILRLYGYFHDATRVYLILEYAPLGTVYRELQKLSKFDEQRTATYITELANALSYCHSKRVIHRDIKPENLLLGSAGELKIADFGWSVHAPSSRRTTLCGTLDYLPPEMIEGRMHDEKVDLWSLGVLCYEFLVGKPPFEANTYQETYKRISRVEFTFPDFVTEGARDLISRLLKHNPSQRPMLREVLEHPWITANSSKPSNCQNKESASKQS
# PROTOCOL_NOTES: Aurora A kinase assay (mobility shift assay)
# Format: biochemical
MEASURED_METRIC: IC50 (nM)

molecule=Cc1cc(Nc2nc(C[C@@]3(C(=O)O)CCN(Cc4cccc(Cl)c4F)[C@H](C)C3)c(F)c(Cl)c2Cl)n[nH]1 unit_text=nM reported=1.4
molecule=Cc1cc(Nc2ncc(F)c(C[C@@]3(C(=O)O)CCN(Cc4cccc(Cl)c4F)[C@H](C)C3)n2)n[nH]1 unit_text=nM reported=2.9
molecule="CCC1CC(Cc2nc(Nc3cc(C)[nH]n3)ccc2F)(C(=O)O)CCN1Cc1cccc(Cl)c1F (centres unmarked)" unit_text=nM reported=2.9
molecule=Cc1cc(Nc2cc(Cl)c(F)c(C[C@@]3(C(=O)O)CCN(Cc4cccc(Cl)c4F)[C@H](C)C3)n2)n[nH]1 unit_text=nM reported=0.64
molecule=Cc1cc(Nc2nc(C[C@@]3(C(=O)O)CCN(Cc4cccc(Cl)c4F)[C@H](C)C3)c(F)c(Cl)c2F)n[nH]1 unit_text=nM reported=0.67

(a) Cc1cc(Nc2ccc(Cl)c(C[C@@]3(C(=O)O)CCN(Cc4cccc(Cl)c4F)[C@H](C)C3)n2)n[nH]1
(b) Cc1cc(Nc2nc(C[C@@]3(C(=O)O)CCN(Cc4cccc(Cl)c4F)[C@H](C)C3)c(F)cc2F)n[nH]1
(c) Cc1cc(Nc2nc(C[C@@]3(C(=O)O)CCN(Cc4cccc(Cl)c4F)[C@H](C)C3)cc(C)c2F)n[nH]1
(d) Cc1cc(Nc2ccc(F)c(C[C@@]3(C(=O)O)CCN(Cc4cccc(C)c4F)[C@H](C)C3)n2)n[nH]1
(e) Cc1cc(Nc2ccc(F)c(C[C@@]3(C(=O)O)CCN(Cc4cccc(C(F)(F)F)c4)[C@H](C)C3)n2)n[nH]1
Reorder the items by IC50, least to greatest. List the labels, following the order given in the request. c, a, b, d, e
(c: 0.37 nM, a: 0.64 nM, b: 1.1 nM, d: 1.7 nM, e: 3.1 nM)

(A) Cc1cc(Nc2ccc(C)c(C[C@@]3(C(=O)O)CCN(Cc4cccc(Cl)c4F)[C@H](C)C3)n2)n[nH]1
(B) Cc1cc(Nc2cc(C)c(F)c(C[C@@]3(C(=O)O)CCN(Cc4cccc(Cl)c4Cl)[C@H](C)C3)n2)n[nH]1
(C) Cc1cc(Nc2ccc(F)c(C[C@@]3(C(=O)O)CCN(Cc4c(F)ccc(Cl)c4F)[C@H](C)C3)n2)n[nH]1
(D) Cc1cc(Nc2ccc(F)c(C[C@@]3(C(=O)O)CCN([C@@H](C)c4cccc(Cl)c4F)[C@H](C)C3)n2)n[nH]1
Order field: IC50 | Direction: descending (largest first) Response format: the labels, sorted as the prompt asks. D, A, B, C
(D: 2.7 nM, A: 1 nM, B: 0.55 nM, C: 0.33 nM)

(a) Cc1cc(Nc2ccc(F)c(C[C@@]3(C(=O)O)CCN(Cc4cc(Cl)c(F)c(Cl)c4)[C@H](C)C3)n2)n[nH]1
(b) Cc1cc(Nc2nc(C[C@@]3(C(=O)O)CCN(Cc4cccc(Cl)c4F)[C@H](C)C3)cc(C#N)c2F)n[nH]1
Hey, which is lower on measured IC50, a or b ? Please respond with the label that marks your chosen entry. b
(b: 0.54 nM, a: 0.91 nM)

The origin of these recorded values is patent US11384066B1.
